TGT: Kappa-type opioid receptor (Cavia porcellus, UniProt P41144)
Sequence (P41144 whole entry): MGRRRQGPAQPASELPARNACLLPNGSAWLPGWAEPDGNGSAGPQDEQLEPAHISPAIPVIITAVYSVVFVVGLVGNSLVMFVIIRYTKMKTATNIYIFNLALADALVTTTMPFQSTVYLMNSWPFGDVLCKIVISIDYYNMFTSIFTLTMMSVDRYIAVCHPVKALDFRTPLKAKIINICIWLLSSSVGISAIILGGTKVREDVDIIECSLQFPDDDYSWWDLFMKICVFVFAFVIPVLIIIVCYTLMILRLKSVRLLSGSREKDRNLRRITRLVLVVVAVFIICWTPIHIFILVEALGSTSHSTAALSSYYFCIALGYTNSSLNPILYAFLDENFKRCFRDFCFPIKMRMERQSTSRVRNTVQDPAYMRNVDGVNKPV
READOUT_LABEL: pIC50
Answer as the number alone; pIC50 is minus log10 of concentration in mol/L.

stdin: Need pIC50, item Cc1cc(O)cc(C)c1C[C@H](N)C(=O)N[C@@H]1CSSC[C@H](C(N)=O)NC(=O)[C@H](Cc2ccc([N+](=O)[O-])cc2)NC(=O)CNC1=O
stdout: 9.27

---

TEST_DETAILS: Binding affinity towards Mu opioid receptor
Ki reference
Return type: number; implicit unit nM.

Example compounds with recorded Ki:
Cc1cc(O)cc(C)c1[C@H](C)CC(=O)N[C@H]1CSSC[C@H](C(N)=O)NC(=O)[C@H](Cc2ccc([N+](=O)[O-])cc2)NC(=O)CNC1=O = 94.4
Cc1cc(O)cc(C)c1C[C@H](N)C(=O)N[C@@H]1CSSC[C@H](C(N)=O)NC(=O)[C@H](Cc2ccc([N+](=O)[O-])cc2)NC(=O)CNC1=O = 0.24

stdin: Need Ki, item Cc1cc(O)cc(C)c1CCC(=O)N[C@H]1CSSC[C@H](C(N)=O)NC(=O)[C@H](Cc2ccc([N+](=O)[O-])cc2)NC(=O)CNC1=O
stdout: 4.79
